System: Sclerotinia sclerotiorum
ASSAY_METHOD_TEXT: Synergistic Growth Inhibition Assay (MIC / FIC index) against Sclerotinia sclerotiorum
Format: cell-based
CONDITION_NOTES: individual compound alone; incubation 7 days
Description: In some embodiments, the synergistic action between the pesticidal active ingredient, and the C6-C10 unsaturated aliphatic acid components of the pesticidal compositions according to embodiments of the present disclosure was tested using a Synergistic Growth Inhibition Assay, which is derived from and related to a checkerboard assay as is known in the art for testing of combinations of antimicrobial agents. […]
Readings of MIC (B) for the listed compounds
Give just the numeric value; µg/mL need not be written.

* CCCCCCCC/C=C/C(=O)O [Trans-2-undecenoic acid, trans-2-undecenoic acid] | 78.12
* CC/C=C/CC(=O)O [Trans-3-hexenoic acid, trans-3-hexenoic acid] | 156.2
* CCCC=CCC(=O)O | 78.12
* C=CCCCC(=O)O | 156.2

Now examine the next entry.
Exercise: If you can, please state the reported MIC (B) value of CCC/C=C/C(=O)O [Trans-2-hexenoic acid, trans-2-hexenoic acid] .
Solution: 78.12
